Reference for the values: ChEMBL document CHEMBL5634170

experimentalProtocol: Selectivity index, ratio of IC50 for antiproliferative activity against human HaCaT cells assessed as inhibition of cell growth to IC50 for antiproliferative activity against human MDA-MB-231 cells assessed as inhibition of cell growth
Type: toxicity, cell-based
conditionSet: HaCaT cells versus MDA-MB-231 cells, read-out: Ratio IC50
metric: selectivity ratio
Number only, no unit.

The examples below pair each entry with its known result.
molecularString | selectivity ratio
COc1cc(OS(=O)(=O)c2ccc(N3CCNC3=O)cc2)cc(OC)c1OC | 0.1
O=C1NCCN1c1ccc(S(=O)(=O)Oc2cc(Cl)nc(Cl)c2)cc1 | 0.3
COc1cc(OS(=O)(=O)c2ccc(N3CCNC3=O)cc2)ccn1 | 0.2
O=C1NCCN1c1ccc(S(=O)(=O)Oc2ccnc(Br)c2)cc1 | 0.5
O=C1NCCN1c1ccc(S(=O)(=O)Oc2cncc(Br)c2)cc1 | 0.1
O=C1NCCN1c1ccc(S(=O)(=O)Oc2cc(Br)nc(Br)c2)cc1 | 0.1
COc1cncc(OS(=O)(=O)c2ccc(N3CCNC3=O)cc2)c1 | 0.2
O=C1NCCN1c1ccc(S(=O)(=O)Oc2ccnc(Cl)c2)cc1 | 0.4

// moving on: another record for selectivity ratio
// sample O=C1NCCN1c1ccc(S(=O)(=O)Oc2cncc(Cl)c2)cc1 , its selectivity ratio was 0.1

====

Readings of selectivity ratio for the listed compounds
experimentalProtocol: Selectivity index, ratio of IC50 for antiproliferative activity against human HaCaT cells assessed as inhibition of cell growth to IC50 for antiproliferative activity against human MCF7 cells assessed as inhibition of cell growth
Format: toxicity, cell-based
conditionSet: HaCaT cells versus MCF7 cells, read-out: Ratio IC50
Just the number, please, no unit after it.

Worked cases, answers included:
molecularString | selectivity ratio
COc1cc(OS(=O)(=O)c2ccc(N3CCNC3=O)cc2)ccn1 | 0.5
O=C1NCCN1c1ccc(S(=O)(=O)Oc2cncc(Br)c2)cc1 | 0.4
O=C1NCCN1c1ccc(S(=O)(=O)Oc2cc(Br)nc(Br)c2)cc1 | 0.2
COc1cc(OS(=O)(=O)c2ccc(N3CCNC3=O)cc2)cc(OC)c1OC | 0.5
O=C1NCCN1c1ccc(S(=O)(=O)Oc2cncc(Cl)c2)cc1 | 0.3

From here, focus on the item given below.
Lookup result for COc1cncc(OS(=O)(=O)c2ccc(N3CCNC3=O)cc2)c1 ; measured selectivity ratio: 0.7
